Where these numbers come from: the supplement of paper PMC6897291

Test system: RIVA
TEST: growth inhibition by drug plus 177Lu-lilotomab satetraxetan (1 - RLU/untreated control) (fraction); higher = stronger inhibition
SETUP_CONDITIONS: 100 nM; time (day): 3; 177Lu-lilotomab satetraxetan 0.5 ug/ml
QUANTITY_KIND: growth inhibition by drug plus 177Lu-lilotomab satetraxetan
Keep the answer to the number alone.

Take a look at these entries with their results.
CCC1(c2ccc(N)cc2)CCC(=O)NC1=O (stereo unspecified) [Aminoglutethimide (Cytadren)]; 0.226
CC(C)[C@]12O[C@H]1[C@@H]1O[C@]13[C@]1(O[C@H]1C[C@H]1C4=C(CC[C@@]13C)C(=O)OC4)[C@@H]2O [Triptolide]; 0.941
C=C1C[C@@H]2[C@H](CC[C@]3(C)C(=O)CC[C@@H]23)[C@@]2(C)C=CC(=O)C=C12; 0.483
O=C(Oc1ccc([N+](=O)[O-])cc1)N1CCC(C(O)(c2ccc3c(c2)OCO3)c2ccc3c(c2)OCO3)CC1; 0.429

(Q) growth inhibition by drug plus 177Lu-lilotomab satetraxetan lookup needed for CC1=C2C[C@H]3[C@@H](CC=C4C[C@@H](O)CC[C@@]43C)[C@@H]2CC[C@]12O[C@@H]1C[C@H](C)CN[C@H]1[C@H]2C , thanks.
(A) 0.454

(Q) Fill in the blank: the reported growth inhibition by drug plus 177Lu-lilotomab satetraxetan of C[C@]12CCC(=O)C(O)=C1CC[C@@H]1[C@@H]2CC[C@]2(C)C(=O)CC[C@@H]12 is ____.
(A) 0.447

(Q) Recorded growth inhibition by drug plus 177Lu-lilotomab satetraxetan for O=C(O)c1nn(Cc2ccc(Cl)cc2Cl)c2ccccc12 , please?
(A) 0.309

(Q) Reported growth inhibition by drug plus 177Lu-lilotomab satetraxetan for CC[C@@H](C(=O)[C@@H](C)[C@@H](O)[C@H](C)[C@@H]1O[C@@H]([C@@H](CC)C(=O)O)CC[C@@H]1C)[C@H]1O[C@]2(C=C[C@@H](O)[C@]3(CC[C@@](C)([C@H]4CC[C@](O)(CC)[C@H](C)O4)O3)O2)[C@H](C)C[C@@H]1C : what is it?
(A) 0.481

(Q) Look at this compound and give its reported growth inhibition by drug plus 177Lu-lilotomab satetraxetan. CN(C)CCN(C)CCc1ccc(Cl)c(Cl)c1
(A) 0.0519

(Q) // query growth inhibition by drug plus 177Lu-lilotomab satetraxetan value for entry CC(=O)Nc1ccc(OC[C@](C)(O)C(=O)Nc2ccc([N+](=O)[O-])c(C(F)(F)F)c2)cc1
(A) 0.404

(Q) For Cc1cc2c(C(C)C)c(O)c(O)c(C=O)c2c(O)c1-c1c(C)cc2c(C(C)C)c(O)c(O)c(C=O)c2c1O , what is its reported growth inhibition by drug plus 177Lu-lilotomab satetraxetan?
(A) 0.233

---

# growth inhibition by drug alone annotations
Tested on: RIVA
TEST: growth inhibition by drug alone (1 - RLU/untreated control) (fraction); higher = stronger inhibition
SETUP_CONDITIONS: 10 nM; time (day): 3; 177Lu-lilotomab satetraxetan 0 ug/ml
Form field (numeric): enter value without unit.

Answered examples (2):
O=P1(N(CCCl)CCCl)NCCCO1 (stereo not drawn) [Cyclophosphamide monohydrate]; -0.165
Cc1cc2c(C(C)C)c(O)c(O)c(C=O)c2c(O)c1-c1c(C)cc2c(C(C)C)c(O)c(O)c(C=O)c2c1O; -0.235

(Q) # growth inhibition by drug alone lookup, item CC[C@@H](C(=O)[C@@H](C)[C@@H](O)[C@H](C)[C@@H]1O[C@@H]([C@@H](CC)C(=O)O)CC[C@@H]1C)[C@H]1O[C@]2(C=C[C@@H](O)[C@]3(CC[C@@](C)([C@H]4CC[C@](O)(CC)[C@H](C)O4)O3)O2)[C@H](C)C[C@@H]1C
(A) 0.136
